The reported measurements were obtained from patent US20080045547A1.

- ASSAY_SUMMARY: Plasma pharmacokinetic comparison of zaleplon free base and HCl salt after single oral doses
- Assay type: in vivo
- ASSAY_SETUP: male, beagle, dog, plasma, po, 2.5 mg HCl Salt/kg, male beagle dogs; single oral dose 2.5 mg HCl Salt/kg; dog H0M004
METRIC_NAME: AUC(0-t) (ng·h/mL)
Number only, in ng·h/mL; omit the unit.

Form field AUC(0-t), entry CCN(C(C)=O)c1cccc(-c2ccnc3c(C#N)cnn23)c1.Cl [zaleplon HCl, Zaleplon Hydrochloride] : 2010

###

- ASSAY_SUMMARY: Pharmacokinetics of indiplon after oral administration of free base or HBr co-crystal suspension
- Assay type: in vivo, male beagle dogs
- ASSAY_SETUP: male, beagle, dog, plasma, po, 5 mg/kg, male dogs; single oral dose 5 mg free base/kg; 0.5% methylcellulose suspension; Mean, N = 5; read-out: Cmax
METRIC_NAME: Cmax (ng/mL)
Number only, in ng/mL; omit the unit.

Form field Cmax, entry CC(=O)N(C)c1cccc(-c2ccnc3c(C(=O)c4cccs4)cnn23)c1 [Indiplon free base, reference compound] : 185
